# system-name: T1, human SLC34A2 (human, UniProt O95436 1-690)
# T1 construct: whole, on cells; also called human solute carrier 34 A2; NaPi2b
# T1 sequence (looked up): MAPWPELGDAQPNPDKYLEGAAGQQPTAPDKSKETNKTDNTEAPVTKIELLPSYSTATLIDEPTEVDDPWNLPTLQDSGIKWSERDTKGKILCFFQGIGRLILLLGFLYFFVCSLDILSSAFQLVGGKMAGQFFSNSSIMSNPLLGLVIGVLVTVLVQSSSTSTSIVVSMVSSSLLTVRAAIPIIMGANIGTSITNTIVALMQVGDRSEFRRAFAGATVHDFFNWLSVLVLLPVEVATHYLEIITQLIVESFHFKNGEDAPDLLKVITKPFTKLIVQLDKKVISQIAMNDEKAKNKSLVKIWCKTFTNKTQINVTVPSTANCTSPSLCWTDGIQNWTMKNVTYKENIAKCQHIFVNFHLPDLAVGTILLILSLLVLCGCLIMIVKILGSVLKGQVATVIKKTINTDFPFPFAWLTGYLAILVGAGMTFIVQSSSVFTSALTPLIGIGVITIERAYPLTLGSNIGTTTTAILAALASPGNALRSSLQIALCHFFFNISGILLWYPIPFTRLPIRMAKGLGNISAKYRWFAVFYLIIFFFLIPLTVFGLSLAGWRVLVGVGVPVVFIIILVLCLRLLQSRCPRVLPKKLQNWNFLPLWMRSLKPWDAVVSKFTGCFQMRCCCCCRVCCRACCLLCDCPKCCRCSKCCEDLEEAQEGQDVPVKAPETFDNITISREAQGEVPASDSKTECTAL
# test-protocol: FACS, HEK293/human SLC34A2 cells
assay-metric: Top (MFI)
Just the number please, in MFI, no unit attached.

Here is how some binders turned out for Top.
| binder | measurement |
| --- | --- |
| 91C9F1.p1.z10 hIgG1 (antibody, V domains shown, humanized hIgG1) VH: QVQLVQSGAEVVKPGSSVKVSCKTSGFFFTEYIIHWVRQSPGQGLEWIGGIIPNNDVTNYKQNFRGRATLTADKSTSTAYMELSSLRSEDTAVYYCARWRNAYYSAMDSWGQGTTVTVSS VL: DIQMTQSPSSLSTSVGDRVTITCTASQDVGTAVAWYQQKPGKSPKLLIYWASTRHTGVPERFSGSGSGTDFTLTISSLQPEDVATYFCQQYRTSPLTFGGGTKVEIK | 38100 |
| 63A11D5B4.p1.z5 hIgG1 (antibody, V domains shown, humanized hIgG1) VH: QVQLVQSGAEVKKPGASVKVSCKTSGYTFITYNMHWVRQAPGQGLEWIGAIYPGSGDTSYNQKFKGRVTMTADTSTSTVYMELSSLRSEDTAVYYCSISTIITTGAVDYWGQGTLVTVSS VL: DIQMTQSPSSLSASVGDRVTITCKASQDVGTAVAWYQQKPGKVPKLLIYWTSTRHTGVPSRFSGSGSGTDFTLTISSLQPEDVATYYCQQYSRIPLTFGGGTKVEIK | 35900 |
| 30H9B8F9 VH_P1/VL hIgG1 (antibody, V domains shown, PTM-derisked chimeric, hIgG1; that P1 is the N=>S version follows from the humanized .p1 chains; also called 30H9B8F9.p1 hIgG1) VH: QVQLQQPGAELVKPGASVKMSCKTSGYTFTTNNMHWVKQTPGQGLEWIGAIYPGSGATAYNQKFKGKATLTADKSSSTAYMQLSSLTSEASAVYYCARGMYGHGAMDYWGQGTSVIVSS VL: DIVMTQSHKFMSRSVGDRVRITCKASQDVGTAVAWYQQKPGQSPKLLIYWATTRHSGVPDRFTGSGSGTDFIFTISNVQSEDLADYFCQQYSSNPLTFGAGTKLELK | 35700 |
| 62G10E4G8.p3.z15 hIgG1 (antibody, V domains shown, humanized hIgG1) VH: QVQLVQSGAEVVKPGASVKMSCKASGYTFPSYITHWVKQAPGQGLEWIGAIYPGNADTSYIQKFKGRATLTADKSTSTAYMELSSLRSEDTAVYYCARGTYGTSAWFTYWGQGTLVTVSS VL: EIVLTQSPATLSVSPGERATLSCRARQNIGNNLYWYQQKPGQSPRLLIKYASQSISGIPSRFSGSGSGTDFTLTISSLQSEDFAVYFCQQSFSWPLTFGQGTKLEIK | 33600 |

Consider now this further binder.
# input binder: 91C9F1.p1.z6 hIgG1 (antibody, V domains shown, humanized hIgG1) VH: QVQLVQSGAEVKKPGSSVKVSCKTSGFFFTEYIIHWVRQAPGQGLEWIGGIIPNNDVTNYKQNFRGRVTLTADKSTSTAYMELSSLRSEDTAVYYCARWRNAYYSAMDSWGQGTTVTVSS VL: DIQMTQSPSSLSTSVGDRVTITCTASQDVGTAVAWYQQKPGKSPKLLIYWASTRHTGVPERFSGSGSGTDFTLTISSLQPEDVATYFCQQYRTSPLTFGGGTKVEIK ; wanted: its Top
36100

Ref: patent US20240301052A1
